TESTED TARGET: PGR (gene 5241) (UniProt P06401)
Sequence (P06401 whole entry, looked up): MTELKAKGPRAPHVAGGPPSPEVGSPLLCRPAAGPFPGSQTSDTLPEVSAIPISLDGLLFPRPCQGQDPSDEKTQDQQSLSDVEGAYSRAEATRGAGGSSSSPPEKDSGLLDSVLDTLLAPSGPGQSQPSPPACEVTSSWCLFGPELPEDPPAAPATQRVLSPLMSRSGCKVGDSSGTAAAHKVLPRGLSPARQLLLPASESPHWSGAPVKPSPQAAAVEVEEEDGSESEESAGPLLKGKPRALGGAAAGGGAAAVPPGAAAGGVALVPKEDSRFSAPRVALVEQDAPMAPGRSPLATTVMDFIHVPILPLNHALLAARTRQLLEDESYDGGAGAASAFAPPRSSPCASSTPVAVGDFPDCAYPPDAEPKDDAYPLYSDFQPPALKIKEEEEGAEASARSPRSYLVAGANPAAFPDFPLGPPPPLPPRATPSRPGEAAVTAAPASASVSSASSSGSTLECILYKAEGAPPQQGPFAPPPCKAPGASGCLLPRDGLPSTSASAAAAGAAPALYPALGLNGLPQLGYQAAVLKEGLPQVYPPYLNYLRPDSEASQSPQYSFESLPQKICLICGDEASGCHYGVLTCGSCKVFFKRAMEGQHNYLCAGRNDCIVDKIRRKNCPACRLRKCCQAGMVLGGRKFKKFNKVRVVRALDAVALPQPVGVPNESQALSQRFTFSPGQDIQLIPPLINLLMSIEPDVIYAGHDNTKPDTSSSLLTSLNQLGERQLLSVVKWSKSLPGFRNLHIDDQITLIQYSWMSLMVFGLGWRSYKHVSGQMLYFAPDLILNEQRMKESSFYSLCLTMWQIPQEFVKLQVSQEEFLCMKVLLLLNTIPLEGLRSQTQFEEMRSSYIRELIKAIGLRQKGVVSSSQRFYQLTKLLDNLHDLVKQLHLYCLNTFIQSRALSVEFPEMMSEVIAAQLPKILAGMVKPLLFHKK
PROTOCOL DETAILS: TOX21_PR_LUC_Followup_Antagonist: Tox21 HEK293 Progesterone Receptor (PR) Antagonism Luciferase Follow-Up Assay (AID 2283938);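 note: curve fitted upward as signal gain over DMSO baseline despite antagonist label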
Excerpt: TOX21_PR_LUC_Followup is a secondary assay for specificity for the TOX21_PR_BLA_Agonist assay. To differentiate true PR agonists from cytotoxic substances, this follow up assay is multiplexed with a cell viability assay.TOX21_PR_LUC_Followup_Antagonist is one of one assay component(s) measured or calculated from the TOX21_PR_LUC_Followup assay. […] Furthermore, this assay endpoint can be referred to as a primary readout, because the performed assay has only produced 1 assay endpoint. […]
Results filed as inconclusive are left out. Activity calls are given as the source filed them. Rule for the calls: active = hit-call score of the fitted dose curve at least 0.9, where 1 is the maximum; inconclusive = response in the unintended direction; inactive = score below 0.9.
Select the matching outcome among TRUE for active, FALSE for inactive

Example results:
# COMPOUND, ASSIGNED CLASS
records = [
    ("CN1CC[C@H](c2c(O)cc(O)c3c(=O)cc(-c4ccccc4Cl)oc23)[C@H](O)C1", "TRUE"),
    ("CC(=O)OCC(=O)[C@@]1(O)CC[C@H]2[C@@H]3CCC4=CC(=O)CC[C@]4(C)[C@H]3C(=O)C[C@@]21C", "FALSE"),
    ("CCN(CC)CC(=O)OCC(=O)[C@@]1(O)CC[C@H]2[C@@H]3CCC4=CC(=O)CC[C@]4(C)[C@H]3[C@@H](O)C[C@@]21C", "FALSE"),
    ("CC(=O)OCC(=O)[C@H]1CC[C@H]2[C@@H]3CCC4=CC(=O)CC[C@]4(C)[C@H]3CC[C@]12C", "FALSE"),
]

Lab log entry: `CCC(=O)Oc1ccc2c(c1)CC[C@@H]1[C@@H]2CC[C@@]2(C)[C@H]1C[C@@H](OC(=O)CC)[C@@H]2OC(=O)CC` — outcome as called in the assay?
FALSE

In this assay, the call recorded for `C[C@@H]1CC(=O)NN=C1c1ccc(NN=C(C#N)C#N)cc1` was what?
TRUE

What did the test return for `C/C=C1/C(=O)C[C@H]2[C@@H]3CCC4=CC(=O)CC[C@]4(C)[C@H]3CC[C@]12C` ?
FALSE

Origin of measurements: PubChem BioAssay (EPA / NIEHS)
